Target: 3R Shaker K channel (Drosophila melanogaster, UniProt P08510, A359R/M356R)
Sequence (P08510 whole entry M356R/A359R): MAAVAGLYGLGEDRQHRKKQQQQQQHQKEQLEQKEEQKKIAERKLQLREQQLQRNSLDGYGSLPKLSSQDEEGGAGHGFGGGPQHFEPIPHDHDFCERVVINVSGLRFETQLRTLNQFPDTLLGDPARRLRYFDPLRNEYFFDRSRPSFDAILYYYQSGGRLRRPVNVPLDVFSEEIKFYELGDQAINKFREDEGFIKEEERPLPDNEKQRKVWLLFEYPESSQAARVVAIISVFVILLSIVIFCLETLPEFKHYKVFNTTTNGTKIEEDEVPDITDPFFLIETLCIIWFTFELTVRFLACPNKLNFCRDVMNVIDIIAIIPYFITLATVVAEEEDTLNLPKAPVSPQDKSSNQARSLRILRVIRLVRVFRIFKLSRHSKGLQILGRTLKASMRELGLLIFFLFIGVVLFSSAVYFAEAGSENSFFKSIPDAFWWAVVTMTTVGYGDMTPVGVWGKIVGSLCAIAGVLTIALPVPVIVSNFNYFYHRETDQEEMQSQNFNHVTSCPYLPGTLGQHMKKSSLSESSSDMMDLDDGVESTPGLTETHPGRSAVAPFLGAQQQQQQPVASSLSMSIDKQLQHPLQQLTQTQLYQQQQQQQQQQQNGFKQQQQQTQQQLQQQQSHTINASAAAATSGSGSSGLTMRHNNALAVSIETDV
Assay: physchem
Assay type: cell-based
Conditions: Table 1; 100 μM, pH 7.4, Xenopus oocytes
Measured Property: G(V) shift (mV)
Number only, in mV; omit the unit.

Guide cases for G(V) shift, answers given:
* CC(C)c1ccc2c(c1Cl)C(=NO)CC1C(C)(C(=O)O)CCCC21C (stereo not drawn) | −5.3
* CC(C)c1cc2c(cc1I)[C@@]1(C)CCC[C@@](C)(C(=O)O)[C@@H]1CC2=O | −13.7
* CC(C)c1ccc2c(c1I)CCC1[C@](C)(C(=O)O)CCC[C@]21C (stereo partly drawn) | −18.3
* CO/N=C1\CC2[C@](C)(C(=O)O)CCC[C@]2(C)c2cc(Br)c(C(C)C)cc21 (stereo partly drawn) | −30.0
* CC(C)c1ccc2c(c1Br)C(=O)CC1[C@](C)(C(=O)O)CCC[C@]21C (stereo partly drawn) | −5.8

Inquiry: Please provide the recorded G(V) shift for C=CCO/N=C1\CC2[C@](C)(C(=O)O)CCC[C@]2(C)c2cc(C=C)c(C(C)C)cc21 (stereo partly drawn) , tested on 3R Shaker K channel (Drosophila melanogaster, UniProt P08510, A359R/M356R).
Reply text: −26.1

Inquiry: Please provide the recorded G(V) shift for C[C@@]1(C(=O)O)CCC[C@]2(C)c3ccc(Cl)c(Cl)c3CCC12 (stereo partly drawn) , tested on 3R Shaker K channel (Drosophila melanogaster, UniProt P08510, A359R/M356R).
Reply text: −24.2

Inquiry: Please provide the recorded G(V) shift for CC(C)c1ccc2c(c1)C(C(=O)O)CC1[C@](C)(C(=O)O)CCC[C@]21C (stereo partly drawn) , tested on 3R Shaker K channel (Drosophila melanogaster, UniProt P08510, A359R/M356R).
Reply text: −1.3

Inquiry: Please provide the recorded G(V) shift for CC(C)c1cc(Cl)c2c(c1)C(O)C[C@H]1[C@](C)(C(=O)O)CCC[C@]21C (stereo partly drawn) , tested on 3R Shaker K channel (Drosophila melanogaster, UniProt P08510, A359R/M356R).
Reply text: −2.8

Inquiry: Please provide the recorded G(V) shift for CC=Cc1c(C(C)C)ccc2c1CCC1[C@](C)(C(=O)O)CCC[C@]21C (stereo partly drawn) , tested on 3R Shaker K channel (Drosophila melanogaster, UniProt P08510, A359R/M356R).
Reply text: −1.9

###

Molecular target: 3R Shaker K channel (Drosophila melanogaster, UniProt P08510, A359R/M356R)
Experiment: cell-based
Assay type: cell-based
Conditions: c1/2 of dose dependence of G(V) shift (Eq. 3), pH 7.4; read-out: Kd-value
Measured Property: pKd
As a rule, pKd stands for the negative log10 of the concentration, concentration in M.

Inquiry: Which pKd is reported for this compound? CO/N=C1\CC2[C@](C)(C(=O)O)CCC[C@]2(C)c2cc(Br)c(C(C)C)cc21 (stereo partly shown) [Wu32]
Reply text: 4.43

###

We begin with a simple list: items and their reported G(V) shift.
Molecular target: 3R Shaker K channel (Drosophila melanogaster, UniProt P08510, A359R/M356R)
Test: physchem
Assay type: cell-based
Conditions: Table 1; 100 μM, pH 7.4, Xenopus oocytes
Number only, in mV; omit the unit.

Guide cases for G(V) shift, answers given:
* CC(C)c1ccc2c(c1I)C(=O)C[C@H]1[C@](C)(C(=O)O)CCC[C@]21C [Wu68] | −26.0
* CC(C)c1ccc2c(c1Br)C(=NO)CC1C(C)(C(=O)O)CCCC21C (stereo not drawn) [Wu88] | −5.6
* COC1CC2[C@](C)(C(=O)O)CCC[C@]2(C)c2ccc(C(C)C)cc21 (stereo partly drawn) [Wu39] | −7.3
* C=Cc1cc2c(cc1C(C)C)/C(=N/OC)CC1[C@](C)(C(=O)O)CCC[C@]21C (stereo partly drawn) [Wu119] | −30.3
* CC(C)c1cc2c(cc1Cl)[C@@]1(C)CCC[C@@](C)(C(=O)O)C1C/C2=N\O (stereo partly drawn) [Wu21] | −13.8
* CC(C)c1cc2c(cc1Br)[C@@]1(C)CCC[C@@](C)(C(=O)O)C1C/C2=N\O (stereo partly drawn) [Wu28] | −12.4
* C=Cc1cc2c(cc1C(C)C)C(=O)C[C@H]1[C@](C)(C(=O)O)CCC[C@]21C [Wu118] | 0.2
* C[C@@]1(C(=O)O)CCC[C@]2(C)c3c(Cl)c(Cl)c(Cl)c(Cl)c3CCC12 (stereo partly drawn) [Wu133] | −25.6

# input for lookup
Inquiry: Which G(V) shift is reported for this molecule? CC(C)c1ccc2c(c1)C(=NO)CC1C(C)(C(=O)O)CCCC21C (stereo not drawn) [Wu31]
Reply text: −3.0
